- protocol-description: Acute toxicity test (oral and intraperitoneal, Up-and-Down method)
- Set-up: species or system mouse (ddY strain)
- study-conditions: mouse, in vivo, ip; intraperitoneal, 6-week old male ddY mice, 3 weeks observation; read-out: LD50 intraperitoneal
measured-parameter: LD50 at 504 h (mg/kg)
Give your result in mg/kg as a bare value.

Worked set:
compound: CC/C(=C(\c1ccccc1)c1ccc(OCCN(C)C)cc1)c1ccccc1 [Tamoxifen, reference compound]
readout-unit: mg/kg
LD50 at 504 h: 177
//
compound: CCC(=C(c1ccc(OCCN(C)C)cc1)c1ccc(OP(=O)(O)O)cc1)c1ccc(C(C)C)cc1 [Compound 5]
readout-unit: mg/kg
LD50 at 504 h: 354
//
compound: CCOc1ccc(/C(CC)=C(/c2ccc(OCCN(C)C)cc2)c2ccc(OP(=O)(O)O)cc2)cc1 [Compound 7]
readout-unit: mg/kg
LD50 at 504 h: 223

Moving on to the next compound.
Per the records, this compound ( CC/C(=C(/c1ccc(OCCN(C)C)cc1)c1ccc(OP(=O)(O)O)cc1)c1ccccc1 [Compound 1] ) has LD50 at 504 h equal to 223

// data source = patent US4897503A
